The reported numbers originate from paper PMC4113814.

system: IL-18; experiment: IL-18 release in supernatants of LPS-treated primary microglial cells (ELISA); assay type: cell-based, Wistar rats; details: C1: 1.0 μg/mL, 72 h, LPS-treated
Metric Name: IL-18 release
Lab note: write values as number then unit, every time.

Below, each entry is followed by its recorded IL-18 release result.
{"Compound": "C=C(C)[C@@H]1C/C=C2\\C(=O)O[C@@H](C[C@]3(C)CC(=O)[C@H](CC(=O)C1)O3)[C@@H]2O [Compound 1, 5-epi-sinuleptolide]", "Tested On": "IL-18", "IL-18 release": "319 ± 8.1 pg/mL"}
{"Compound": "C=C(C)[C@@H]1C/C=C2\\C(=O)O[C@@H](C[C@]3(C)CC(=O)[C@@H](CC(=O)C1)O3)[C@@H]2O [Compound 2, sinuleptolide]", "Tested On": "IL-18", "IL-18 release": "326 ± 4.9 pg/mL"}
{"Compound": "C=C(C)C1CCC23OC2C(CC2(C)CC(=O)C(CC(=O)C1)O2)OC3=O (stereo not shown) [Compound 3, scabrolide D]", "Tested On": "IL-18", "IL-18 release": "312 ± 8.2 pg/mL"}

Problem: I have this compound here, C=C(C)[C@@H]1CC(=O)[C@H]2[C@H](C1)[C@@H]1C(=O)O[C@@H]3C[C@@]4(C)O[C@H]2C(=O)[C@@H]4[C@H]13 [Compound 6, ineleganolide] , and I need its recorded IL-18 release.
Result: 312 ± 8.2 pg/mL
